tested on: CCRF-CEM; assay: Growth inhibition of human CCRF-CEM cells; assay type: functional
parameter_measured: GI50 (nM)
Report as a plain number; the unit nM is understood.

Solved entries (count: 2):
{"columns": ["smiles_representation", "parameter_measured", "numeric_value"],
 "data": [
  ["CCCCCCCC/C=C(/C)C[C@]1(C)C[C@H](C)[C@@H](CC(=O)O)OO1", "GI50", 600],
  ["CCCCCCCCC/C=C(/C)C[C@]1(C)C[C@H](C)[C@@H](CC(=O)O)OO1", "GI50", 980]
]}

Now for the molecule whose GI50 we want.
Answer with reported GI50 of `COc1cccc2c1C(=O)c1c(O)c3c(c(O)c1C2=O)C[C@@](O)(C(=O)CO)C[C@@H]3O[C@H]1C[C@H](N)[C@H](O)[C@H](C)O1`
120

====

Entries and their GI50 values follow.
test system: UACC-62; experiment: Growth inhibition of human UACC-62 cells; format: functional
Report as a plain number; the unit nM is understood.

Solved entries (count: 2):
{"columns": ["smiles_representation", "parameter_measured", "numeric_value"],
 "data": [
  ["COc1cccc2c1C(=O)c1c(O)c3c(c(O)c1C2=O)C[C@@](O)(C(=O)CO)C[C@@H]3O[C@H]1C[C@H](N)[C@H](O)[C@H](C)O1", "GI50", 120],
  ["CCCCCCCC/C=C(/C)C[C@]1(C)C[C@H](C)[C@@H](CC(=O)O)OO1", "GI50", 600]
]}

Now for the compound whose GI50 we want.
Answer with reported GI50 of `CCCCCCCCC/C=C(/C)C[C@]1(C)C[C@H](C)[C@@H](CC(=O)O)OO1`
980

====

Entries and their GI50 values follow.
system: IGROV-1; assay: Growth inhibition of human IGROV-1 cells; type: functional

Solved entries (count: 3):
{"columns": ["compound", "parameter_measured", "result"],
 "data": [
  ["CCCCCCCCC/C=C(/C)C[C@]1(C)C[C@H](C)[C@@H](CC(=O)O)OO1", "GI50", "980 nM"],
  ["COc1cccc2c1C(=O)c1c(O)c3c(c(O)c1C2=O)C[C@@](O)(C(=O)CO)C[C@@H]3O[C@H]1C[C@H](N)[C@H](O)[C@H](C)O1", "GI50", "120 nM"],
  ["CCCCCCCCC/C=C(/C)CC(C)(O)CC(C)C(O)CC(=O)OC (centres undefined)", "GI50", "> 100000 nM"]
]}

Now for the compound whose GI50 we want.
Answer with reported GI50 of `CCCCCCCC/C=C(/C)C[C@]1(C)C[C@H](C)[C@@H](CC(=O)O)OO1`
600 nM

====

tested on: SF-539; assay: Growth inhibition of human SF-539 cells; assay type: functional
parameter_measured: GI50 (nM)
Report as a plain number; the unit nM is understood.

Solved entries (count: 2):
{"columns": ["smiles_representation", "GI50 / nM"],
 "data": [
  ["CCCCCCCCC/C=C(/C)C[C@]1(C)C[C@H](C)[C@@H](CC(=O)O)OO1", 980],
  ["COc1cccc2c1C(=O)c1c(O)c3c(c(O)c1C2=O)C[C@@](O)(C(=O)CO)C[C@@H]3O[C@H]1C[C@H](N)[C@H](O)[C@H](C)O1", 120]
]}

Now for the compound whose GI50 we want.
Answer with reported GI50 of `CCCCCCCC/C=C(/C)C[C@]1(C)C[C@H](C)[C@@H](CC(=O)O)OO1`
600
